System: murine Abcg2
test: Tissue distribution in wild-type and Abcg2−/− male mice
Assay type: in vivo
statedConditions: FVB/N, mouse, kidney, sc; Abcg2−/− male mice, 96 h, 10 mg/kg s.c.; read-out: Tissue concentration, kidney
endpoint: concentration at 96 h (ng/g)
Give bare numbers, in ng/g.

Query string: Data request, read-out concentration at 96 h, for N#Cc1cc(I)c(O)c([N+](=O)[O-])c1
Result string: 3500

====

Test system: murine Abcg2
Construct: from tissue; host or cells: whole animal: wild-type vs Abcg2-/- mice, >99% FVB/N background
test: Tissue distribution in wild-type and Abcg2−/− male mice
Type: in vivo
statedConditions: FVB/N, mouse, testis, sc; wild-type male mice, 24 h, 10 mg/kg s.c.; read-out: Tissue concentration, testis
endpoint: concentration at 24 h (ng/g)
Give bare numbers, in ng/g.

Query string: I'd like to know its concentration at 24 h. The molecule in question is N#Cc1cc(I)c(O)c([N+](=O)[O-])c1
Result string: 2600

====

Test system: murine Abcg2
Construct: from tissue; host or cells: whole animal: wild-type vs Abcg2-/- mice, >99% FVB/N background
test: Milk secretion experiment in lactating wild-type and Abcg2−/− female mice
Assay type: in vivo
statedConditions: FVB/N, mouse, plasma, intravenous; lactating wild-type female mice, 30 min after 10 mg/kg i.v.; read-out: Plasma concentration
endpoint: concentration at 30 min (µg/mL)
Answers are plain numbers, in µg/mL.

Query string: GET /values?readout=concentration at 30 min&item= N#Cc1cc(I)c(O)c([N+](=O)[O-])c1
Result string: 58.8
